# Tested on: SF-268 CNS
# Measurement protocol: NCI-60 one-dose screen, 48 h
# Settings: 10 µM unless noted
# Protocol: Cells are grown in 96 well plates and exposed to the test compound for 48 hours. Compounds are tested at a single concentration, which is 10^-5 M for most compounds. The reported endpoint is percent growth (GI% or GIPRCNT), where numbers from 0 - 100% represent growth inhibition, and numbers from -100% - 0 represent cell death. For example, a value of 40 represents 60% growth inhibition. A value of 0 means no net growth occurred over the course of the experiment. […]
The panel holds about 83,000 compounds, 20% with a hit somewhere; the sample as a whole holds those more often. Activity calls are given as the source filed them. How the source made its calls: active means growth percent below 10; inactive means the rest.
Please reply with one of these outcomes: TRUE (active), FALSE (inactive)

These recorded examples may help you get a feel for the data.
Cc1ccc2c(c1)CC(O)CC1C(=O)N(CCO)CC(=O)N21 (stereo not drawn) ... FALSE
FC(F)(F)c1cc(N2CCCCC2)nc(NCCCNc2ccnc3cc(Cl)ccc23)n1 ... FALSE
COC1=C(OC)C(=O)C(CCCCCCCCCCO)=C(C)C1=O ... FALSE
COc1cc(CNC(=O)CCCC/C=C/C(C)C)ccc1OCc1cn(-c2cccc([N+](=O)[O-])c2)nn1 ... FALSE
C#Cc1c(I)n(C2OC(CO[Si](C)(C)C(C)(C)C)C3OC(C)(C)OC32)c(=O)[nH]c1=O (stereo not drawn) ... FALSE

INPUT: # outcome recorded in this test, key = COc1cc(C)cc(-c2c(-c3cc(N4CC(O)C4)nc(-c4cccnc4)n3)cnn2C)c1
OUTPUT: FALSE

INPUT: # outcome recorded in this test, key = CC(=O)[C@H]1CC[C@]2(C)[C@@H]1CC[C@@H]1[C@@]3(C)C/C(=C/c4cccnc4)C(=O)C(C)(C)[C@@H]3CC[C@]12C
OUTPUT: FALSE

INPUT: # outcome recorded in this test, key = Cc1nc2ccccc2c(/C=C/c2ccc(Cl)cc2)c1C(=O)/C=C/c1ccccc1
OUTPUT: FALSE

INPUT: # outcome recorded in this test, key = O=CN1N=C(c2cccc(Nc3ccncc3)c2)CC1c1ccc2c(c1)OCO2 (stereo not drawn)
OUTPUT: FALSE

---

# Test system: A498 renal
# Measurement protocol: NCI-60 one-dose screen, 48 h (100 = growth as untreated, 0 = no growth, -100 = all killed)
# Settings: 10 µM unless noted
This is part of a sample that, as a whole, favours compounds with a hit. Of some 83,000 tested, about 20% had one in any assay. Calls of active or inactive are those of the source. How the source made its calls: active means growth percent below 10; inactive means the rest.
Measured attribute: growth

Cc1ccccc1NC(=O)c1sc2nc3c(cc2c1N)CCCC3 ... -3.82% (active)

Field growth (system: A498 renal) for entry CN(Cc1ccccc1)c1nc(Cl)c(C2CC(c3ccc(Cl)cc3)=NN2c2cc(Cl)cc(Cl)c2)s1 (centres undefined) = 111% (inactive)

Field growth (system: A498 renal) for entry CN1CCN(Cc2ccc(NC(=O)c3cncc(C#Cc4cnc(N)c5ncccc45)c3)cc2Cl)CC1 = 104% (inactive)

Field growth (system: A498 renal) for entry Cc1cc(=O)oc2cc(Oc3nc(-c4ccccc4)cn4c(-c5ccccc5)cnc34)ccc12 = 9.88% (active)

Field growth (system: A498 renal) for entry C#C[C@]1(O)CC[C@H]2[C@@H]3CC=C4c5sc(-c6cccc(C)c6)nc5CC[C@]4(C)[C@H]3CC[C@@]21C = 94.9% (inactive)

Field growth (system: A498 renal) for entry CCCCC1=C(Br)C(=O)c2ncccc2C1=O = 99.5% (inactive)

Field growth (system: A498 renal) for entry COc1cccc(/C=C2\CCc3ccccc3C2=O)c1 = 95.2% (inactive)

---

# System: KM12 colon
# Measurement protocol: NCI-60 one-dose screen, 48 h
# Settings: 10 µM unless noted
This is part of a sample that, as a whole, favours compounds with a hit. Of some 83,000 tested, about 20% had one in any assay. Activity calls are given as the source filed them. The calls were made as follows: active = growth percent below 10; inactive = the rest.
Please reply with one of these outcomes: active, inactive

These recorded examples may help you get a feel for the data.
CN(C)c1ccc(/C=C/C2=[N+](C)c3ccccc3C2(C)C)cc1 ... active
O=C1/C(=C/c2ccc(-c3ccc(Cl)cc3)o2)SC(=S)N1CCc1ccc(O)cc1 ... inactive
COc1cc(/C=C/C(=O)c2ccc(-n3cc(CN4CCN(c5cc6c(cc5F)c(=O)c(C(=O)O)cn6C5CC5)CC4)nn3)cc2)cc(OC)c1OC ... inactive

INPUT: # outcome recorded in this test, key = CC(C)c1nc(N(C)S(C)(=O)=O)nc(-c2ccc(F)cc2)c1/C=C/C(=O)C[C@@H](O)CC(=O)O
OUTPUT: inactive

INPUT: # outcome recorded in this test, key = CC1(C)CC[C@]2(CO)CC[C@]3(C)C(=CC[C@@H]4[C@@]5(C)CCNCC(C)(C)[C@@H]5CC[C@]43C)[C@@H]2C1
OUTPUT: inactive

INPUT: # outcome recorded in this test, key = C=C(CNCCO)[C@@H]1CC[C@]2(CO)CC[C@]3(C)[C@H](CC[C@@H]4[C@@]5(C)CCC(NCCO)C(C)(C)[C@@H]5CC[C@]43C)[C@@H]12 (stereo partly drawn)
OUTPUT: inactive

INPUT: # outcome recorded in this test, key = Cc1[nH]c(C(=O)Nc2ccc(C(N)=O)cc2OC(C)C)c(Cl)c1Cl
OUTPUT: inactive

INPUT: # outcome recorded in this test, key = Clc1ccc2c(NCCCn3cnc4c(N5CCCC5)nc(Cl)nc43)ccnc2c1
OUTPUT: inactive

---

# Tested on: NCI/ADR-RES ovarian
# Measurement protocol: NCI-60 one-dose screen, 48 h (100 = growth as untreated, 0 = no growth, -100 = all killed)
# Settings: 10 µM unless noted
Compounds without any hit were thinned out: in the full panel of roughly 83,000, 20% have a hit. The source made the active and inactive calls. How the source made its calls: active means growth percent below 10; inactive means the rest.
Measured growth, listed per entry.

CC(=O)Cc1nsc(NC(=O)c2cc(-c3cc(Cl)ccc3Cl)oc2C)n1 ... 108% (inactive)
CCN1C(=O)N(CC)C2C1NN=c1s/c(=C\c3ccc([N+](=O)[O-])cc3)c(=O)n12 (stereo not given) ... 9.89% (active)

Notebook: C=C(CNCCc1ccc(O)cc1)[C@@H]1CC[C@]2(CO)CC[C@]3(C)[C@H](CC[C@@H]4[C@@]5(C)CCC(N)C(C)(C)[C@@H]5CC[C@]43C)[C@@H]12 (stereo not given in full) , growth read as 60.4% (inactive)

Notebook: COC(=O)[C@H]1Cc2c([nH]c3ccccc23)[C@H](c2ccc3c(c2)OCO3)N1 , growth read as 99.8% (inactive)

Notebook: COc1ccc(NC(=O)c2ccc(NC3=C(c4ccc(Cl)cc4)C(=O)NC3=O)cc2)cc1 , growth read as 88.3% (inactive)

---

# Tested on: MOLT-4 leukemia
# Measurement protocol: NCI-60 one-dose screen, 48 h (100 = growth as untreated, 0 = no growth, -100 = all killed)
# Settings: 10 µM unless noted
Compounds without any hit were thinned out: in the full panel of roughly 83,000, 20% have a hit.
Measured attribute: growth (%)
Kindly answer with a numeric value in %, unit omitted.

Consider the following illustrative entries.
O=C1/C(=C/c2ccccc2)COc2ccc(O)cc21 ... 78.6
CCOC(=O)c1c(C)n2c(=O)cc(C)c3c(OC(C)=O)c(OC(C)=O)cc1c32 ... 19.3
C(=N\Nc1nnc2n1N=C(c1ccccc1)CS2)/c1ccc(OCc2ccccc2)cc1 ... 92.8
CN(C)c1ccc(/C=C/C2=[N+](C)c3ccccc3C2(C)C)cc1 ... -6.54
CC/C(=C(/c1ccc(Cl)cc1)c1ccc(OCCN2CCCCCC2)cc1)c1ccccc1 ... 68.8
Cc1nn(C)c2ncnc(Nc3ccccc3Br)c12 ... 95.9

# ---- query molecule ----
Field growth (system: MOLT-4 leukemia) for entry CN(C)C(=S)NN=C(c1ccccn1)c1ccccn1 = -2.95

---

# Test system: NCI-H460 lung
# Measurement protocol: NCI-60 one-dose screen, 48 h
# Settings: 10 µM unless noted
This is part of a sample that, as a whole, favours compounds with a hit. Of some 83,000 tested, about 20% had one in any assay. The source made the active and inactive calls. How the source made its calls: active means growth percent below 10; inactive means the rest.
Please reply with one of these outcomes: Y for active, N for inactive

These recorded examples may help you get a feel for the data.
COc1ccc(/C=N/NC(=O)Cn2nnc3ccccc32)cc1 ... N
C[C@@H]1N=C(c2ccc(Cl)cc2Cl)Nc2nc3ccccn3c2C1=O ... N
COc1cc2c(cc1OC)CC[N+](CCC[N+](C)(C)C)=C2 ... N
COc1ccc(Nc2nc(Nc3cc(C)[nH]n3)c3cc(OC)c(OC)cc3n2)cc1 ... Y
CN1CCN(Cc2ccc(NC(=O)c3cc(C#Cc4cnc(N)c5ncccc45)n(C)n3)cc2C(F)(F)F)CC1 ... Y

Please look at the following compound next.
INPUT: # outcome recorded in this test, key = Nc1ncc(-c2ccc3ncnc(N4CCc5cc(F)c(Cl)cc54)c3c2)cn1
OUTPUT: N

Source of measurements: PubChem BioAssay (NCI)
